Sourced from patent US20200283478A1

- TARGET_ENTITY: T1, His-tagged, full-length PCSK9 (human, UniProt Q8NBP7 31-692)
- T1 construct: secreted PCSK9 is autocatalytically cleaved into prodomain and catalytic domain + CRD (from S153), which stay associated; also called His-PCSK9; proprotein convertase subtilisin/kexin type 9; not shown: His tag
- PROTOCOL_NOTES: TR-FRET competition (PCSK9/EGF(A) assay); competitor EGF(A)-Fc;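 further: proximity signal from anti-His APC on PCSK9 paired with anti-Fc europium on the Fc ligand, read as normalized TR-FRET ratio across compound dilutions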
Bridge positions count the residues as written; N and C are the ends.
MEASURED_PARAMETER: IC50

Ask: Query IC50 for Ac-DCLWNLKRIGSQCEY-NH2 (disulfide 2-13; SMILES CC[C@H](C)[C@@H]1NC(=O)[C@H](CCCNC(=N)N)NC(=O)[C@H](CCCCN)NC(=O)[C@H](CC(C)C)NC(=O)[C@H](CC(N)=O)NC(=O)[C@H](Cc2c[nH]c3ccccc23)NC(=O)[C@H](CC(C)C)NC(=O)[C@@H](NC(=O)[C@H](CC(=O)O)NC(C)=O)CSSC[C@@H](C(=O)N[C@@H](CCC(=O)O)C(=O)N[C@@H](Cc2ccc(O)cc2)C(N)=O)NC(=O)[C@H](CCC(N)=O)NC(=O)[C@H](CO)NC(=O)CNC1=O) [Compound 64 (Ac-DCLWNLKRIGSQCEY-NH2)]
Result: > 50 µM
